Test name: Binding affinity to MLXBIR3SG domain by fluorescence polarization competitive assay
Measured metric: pKi
// returns pKi (minus log10 of molar concentration), number only

Examples with their reported pKi follow.
Molecule	pKi
CN[C@@H](C)C(=O)N[C@H](C(=O)N1CC[C@H]2CC[C@H](NC(=O)c3csc4ccccc34)[C@H]21)C(C)(C)C	6.96
CN[C@@H](C)C(=O)N[C@H](C(=O)N1CC[C@H]2CC[C@H](NC(=O)c3ccc4c(c3)OCO4)[C@H]21)C(C)(C)C	5.89
CN[C@@H](C)C(=O)N[C@H](C(=O)N1CCC[C@H]1CNC(=O)c1cccc2ccccc12)C(C)(C)C	6.11
CN[C@@H](C)C(=O)N[C@H](C(=O)N1CC[C@H]2CC[C@H](NC(=O)c3c(OC)ccc4ccccc34)[C@H]21)C(C)(C)C	6.96
CN[C@@H](C)C(=O)N[C@H](C(=O)N1CCC[C@H]1CNC(=O)C(c1ccccc1)c1ccccc1)C(C)(C)C	6.54

Prompt: State the recorded pKi for this entry: CN[C@@H](C)C(=O)N[C@H](C(=O)N1CC[C@H]2CC[C@H](NC(=O)C3COc4ccccc43)[C@H]21)C(C)(C)C (some centres not stated)
Response: 5.82

Prompt: State the recorded pKi for this entry: CN[C@@H](C)C(=O)N[C@H](C(=O)N1CC[C@H]2CC[C@H](NC(=O)c3ccc(C)c4ccccc34)[C@H]21)C(C)(C)C
Response: 7.20

----------
Reported pKi values for the following compounds.
Measurement target: E3 ubiquitin-protein ligase XIAP (Homo sapiens, UniProt P98170)
Sequence (P98170 whole entry, the tested form may be a part): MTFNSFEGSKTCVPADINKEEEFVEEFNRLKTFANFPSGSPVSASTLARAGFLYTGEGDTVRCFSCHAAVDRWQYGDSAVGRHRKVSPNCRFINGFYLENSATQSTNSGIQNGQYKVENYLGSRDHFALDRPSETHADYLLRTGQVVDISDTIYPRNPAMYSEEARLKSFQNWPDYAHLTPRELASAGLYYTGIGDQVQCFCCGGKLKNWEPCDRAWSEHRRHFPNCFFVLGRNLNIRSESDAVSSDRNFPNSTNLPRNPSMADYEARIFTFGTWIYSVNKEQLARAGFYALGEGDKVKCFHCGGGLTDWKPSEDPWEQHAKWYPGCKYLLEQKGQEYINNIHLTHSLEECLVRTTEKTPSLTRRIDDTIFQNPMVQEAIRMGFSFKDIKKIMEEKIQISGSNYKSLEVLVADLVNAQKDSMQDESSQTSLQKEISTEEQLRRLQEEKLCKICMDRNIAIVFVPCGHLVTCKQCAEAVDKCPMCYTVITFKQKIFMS
Test name: Binding affinity to XIAP-BIR3 domain by fluorescence polarization competitive assay
// returns pKi (minus log10 of molar concentration), number only

Prompt: Give the reported pKi for CN[C@@H](C)C(=O)N[C@H](C(=O)N1CCC[C@H]1CNC(=O)C(c1ccccc1)c1ccccc1)C(C)(C)C (system: E3 ubiquitin-protein ligase XIAP (Homo sapiens, UniProt P98170)).
Response: 5.52

Prompt: Give the reported pKi for CN[C@@H](C)C(=O)N[C@H](C(=O)N1CC[C@H]2CC[C@H](NC(=O)c3csc4ccccc34)[C@H]21)C(C)(C)C (system: E3 ubiquitin-protein ligase XIAP (Homo sapiens, UniProt P98170)).
Response: 6.80

Prompt: Give the reported pKi for CN[C@@H](C)C(=O)N[C@H](C(=O)N1CC[C@H]2CC[C@H](NC(=O)c3ccc4[nH]nnc4c3)[C@H]21)C(C)(C)C (system: E3 ubiquitin-protein ligase XIAP (Homo sapiens, UniProt P98170)).
Response: 5.82

Prompt: Give the reported pKi for CN[C@@H](C)C(=O)N[C@H](C(=O)N1CC[C@H]2CC[C@H](NC(=O)c3coc4ccccc34)[C@H]21)C(C)(C)C (system: E3 ubiquitin-protein ligase XIAP (Homo sapiens, UniProt P98170)).
Response: 6.19

----------
Reported Ki values for the following compounds.
Measurement target: E3 ubiquitin-protein ligase XIAP (Homo sapiens, UniProt P98170)
Test name: Binding affinity to XIAP-BIR3 domain by fluorescence polarization competitive assay
// return numeric value only (unit: nM, not printed)

Compound	Recorded measurement
CN[C@@H](C)C(=O)N[C@H](C(=O)N1CC[C@H]2CC[C@H](NC(=O)N3CCc4ccccc43)[C@H]21)C(C)(C)C	1500
CN[C@@H](C)C(=O)N[C@H](C(=O)N1CC[C@H]2CC[C@H](NC(=O)C3COc4ccccc43)[C@H]21)C(C)(C)C (stereo partly specified)	1300
CN[C@@H](C)C(=O)N[C@H](C(=O)N1CC[C@H]2CC[C@H](NC(=O)c3c(OC)ccc4ccccc34)[C@H]21)C(C)(C)C	110
CN[C@@H](C)C(=O)N[C@H](C(=O)N1CC[C@H]2CC[C@H](NC(=O)c3ccc4c(c3)OCO4)[C@H]21)C(C)(C)C	1800
CN[C@@H](C)C(=O)N[C@H](C(=O)N1CC[C@H]2CC[C@H](NC(=O)c3ccc(C)c4ccccc34)[C@H]21)C(C)(C)C	190

Prompt: State the recorded Ki for this entry: CN[C@@H](C)C(=O)N[C@H](C(=O)N1CCC[C@H]1CNC(=O)c1cccc2ccccc12)C(C)(C)C
Response: 1600

----------
Test name: Cmax in mouse at 25 mg/kg, po
Assay type: ADME, organism-based
Design: dose 25 mg/kg, route oral
Setup conditions: in vivo
Measured metric: Cmax

Smiles repr	Cmax
CN[C@@H](C)C(=O)N[C@H](C(=O)N1CC[C@H]2CC[C@H](NC(=O)C(c3ccccc3)c3ccccc3)[C@H]21)C(C)(C)C	5 µM

Prompt: State the recorded Cmax for this entry: CN[C@@H](C)C(=O)N[C@H](C(=O)N1CC[C@H]2CC[C@H](NC(=O)c3cccc4ccccc34)[C@H]21)C(C)(C)C
Response: 3.6 µM

----------
Test name: Binding affinity to MLXBIR3SG domain by fluorescence polarization competitive assay
Reported Ki values for the following molecules.

Smiles repr	Ki
CN[C@@H](C)C(=O)N[C@H](C(=O)N1CC[C@H]2CC[C@H](NC(=O)c3coc4ccccc34)[C@H]21)C(C)(C)C	440 nM
CN[C@@H](C)C(=O)N[C@H](C(=O)N1CC[C@H]2CC[C@H](NC(=O)N3CCc4ccccc43)[C@H]21)C(C)(C)C	1900 nM

Consider the additional molecule presented here.
Prompt: State the recorded Ki for this entry: CN[C@@H](C)C(=O)N[C@H](C(=O)N1CC[C@H]2CC[C@H](NC(=O)c3ccc4[nH]nnc4c3)[C@H]21)C(C)(C)C
Response: 260 nM

----------
Reported AUC values for the following molecules.
Test name: AUC in mouse at 25 mg/kg, po
Assay type: ADME, organism-based
Design: dose 25 mg/kg, route oral
Setup conditions: plasma
// return numeric value only (unit: µM·h, not printed)

Smiles repr	AUC / µM·h
CN[C@@H](C)C(=O)N[C@H](C(=O)N1CC[C@H]2CC[C@H](NC(=O)C(c3ccccc3)c3ccccc3)[C@H]21)C(C)(C)C	16

Consider the additional molecule presented here.
Prompt: State the recorded AUC for this entry: CN[C@@H](C)C(=O)N[C@H](C(=O)N1CC[C@H]2CC[C@H](NC(=O)c3cccc4ccccc34)[C@H]21)C(C)(C)C
Response: 5
